# System: Plasmodium berghei
# test protocol: Screen against P. berghei liver stage (PbLuc), transformed with Luciferase, at 10uM
# Assay type: functional, HepG2
# applied conditions: tested at 10 uM
The whole screen tested about 69,000 compounds, of which about 8,600 (12%) showed an effect of 50% or more. Shown is part of a subset that was picked to be rich in strong results.
experimental endpoint: INHIBITION (%)
One number for each entry, in %.

Sample answers from the record:
compound="CCOCCN1CCN(CC(=O)N2CCCC2)CC1CC (configuration not stated)" measure_unit=% observed_result=31.9
compound=Cn1cc(CN2CCc3c(COCC4CC4)cncc3C2)cn1 measure_unit=% observed_result=7.15
compound="CCOCCN1CCN(CC(=O)N2CCCC2)CC1C (configuration not stated)" measure_unit=% observed_result=66.5
compound=CN(C)Cc1cncc2c1CCN(CC(=O)N(C)C)C2 measure_unit=% observed_result=72
compound=CN(Cc1cccnc1)Cc1cncc2c1CCN(Cc1ccoc1)C2 measure_unit=% observed_result=28.5
compound="CCOCCN1CCN(CC(=O)N2CCC2)CC1CC (configuration not stated)" measure_unit=% observed_result=-20.2

Can you share its INHIBITION? I mean this compound: COCc1cncc2c1CCN(Cc1cnn(C)c1)C2
-26.2
